Ref: patent US20180237497A1

TARGET: T1, human IGF2^1-67 (mature insulin-like growth factor 2) (human, UniProt P01344 25-91, biotinylated (site not stated) where immobilised on the chip (Tables 1-4))
T1 construct: mature; also called mature IGF2; biotinylated IGF2
T1 sequence (P01344 25-91): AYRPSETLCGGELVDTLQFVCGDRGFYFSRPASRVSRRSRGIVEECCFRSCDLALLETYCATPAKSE
ASSAY_PROCEDURE: SPR kinetic, biotin-IGF2 on chip
MEASUREMENT_LABEL: koff (s⁻¹)
Answer format: numeric, s⁻¹ implied, no suffix.

Take a look at these entries with their results.
{"columns": ["BINDER", "UNIT_ABBREV", "MEAS_VALUE"],
 "data": [
  ["IGF2R domain 11^WT (receptor, Soluble His6-tagged domain 11 from P. pastoris and/or E. coli; also called wild-type domain 11) MKSNEHDDCQVTNPSTGHLFDLSSLSGRAGFTAAYSEKGLVYMSICGENENCPPGVGACFGQTRISVGKANKRLRYVDQVLQLVYKDGSPCPSKSGLSYKSVISFVCRPEAGPTNRPMLISLDKQTCTLFFSWHTPLACEQATECSV", "s⁻¹", 0.23],
  ["domain 11^AB5 + 51F (HI-NRQS) (receptor, See m5; Protein quality poor) MKSNEHDDCQVTNPSTGHLFDLSSLSGRAGFTAAYAKGWGVYMSICGENENCPPGVGACFGQTRISVGKANKRLRYVDQVLQLVYKDGSPCPSKSGLSYKSVISFVCRPEAGPTNRPMLISLNRQSCTLFFSWHTPLACEQATECSV", "s⁻¹", 0.1],
  ["domain 11^WT + 26C (HI-DMQT) (receptor, See m5; Protein quality poor) MKSNEHDDCQVTNPSTGHLFDLSSLSGRAGFTAAYSEKGLVYMSICGENENCPPGVGACFGQTRISVGKANKRLRYVDQVLQLVYKDGSPCPSKSGLSYKSVISFVCRPEAGPTNRPMLISLDMQTCTLFFSWHTPLACEQATECSV", "s⁻¹", 0.24]
]}

Here is another binder to look at.
### Prompt Input IGF2R domain 11^AB3 (receptor, His6-tagged soluble domain 11; also called domain 11^E1544K, K1545S, L1547V; 1542YSKSGV1547) MKSNEHDDCQVTNPSTGHLFDLSSLSGRAGFTAAYSKSGVVYMSICGENENCPPGVGACFGQTRISVGKANKRLRYVDQVLQLVYKDGSPCPSKSGLSYKSVISFVCRPEAGPTNRPMLISLDKQTCTLFFSWHTPLACEQATECSV , output reported koff.
### Response 0.044
